Tested on: 3T3-L1
protocol-notes: Cytotoxicity against mouse 3T3L1 cells at 50 uM after 24 hrs by sulforhodamine B assay
Assay type: cell-based
measurement-parameters: 3t3-l1, 24 h
Catalogue of Activity readings, one per entry.
assay-metric: Activity

smiles-representation: CC(=O)Oc1ccc(C(=O)c2ccc(OC(C)=O)c(OC(C)=O)c2)cc1OC(C)=O
target-of-assay: 3T3-L1
assay-metric: Activity
result: 26 to 50%
--
smiles-representation: COc1cc(C(Br)Br)c2c(=O)c3ccccc3oc2c1OC
target-of-assay: 3T3-L1
assay-metric: Activity
result: 26 to 50%
--
smiles-representation: O=c1c2ccccc2oc2ccc(O)c(O)c12
target-of-assay: 3T3-L1
assay-metric: Activity
result: 0 to 25%
--
smiles-representation: O=c1c2cc(O)c(O)cc2oc2cc(O)c([C@@H]3O[C@H](CO)[C@@H](O)[C@H](O)[C@H]3O)c(O)c12
target-of-assay: 3T3-L1
assay-metric: Activity
result: 0 to 25%
--
smiles-representation: CC1(C)C=Cc2c(cc3c(=O)c4ccccc4oc3c2O)O1
target-of-assay: 3T3-L1
assay-metric: Activity
result: 0 to 25%
--
smiles-representation: O=C(O)Cc1cccc2oc3ccccc3c(=O)c12
target-of-assay: 3T3-L1
assay-metric: Activity
result: 0 to 25%
--
smiles-representation: COc1cccc2c(=O)c3ccccc3oc12
target-of-assay: 3T3-L1
assay-metric: Activity
result: 26 to 50%
--
smiles-representation: O=c1c2cc(O)ccc2oc2cccc(O)c12
target-of-assay: 3T3-L1
assay-metric: Activity
result: 0 to 25%
--
smiles-representation: O=C(COc1ccc2c(=O)c3ccccc3oc2c1)N[C@@H](c1ccccc1)[C@H](O)c1ccccc1
target-of-assay: 3T3-L1
assay-metric: Activity
result: 76 to 100%
--
smiles-representation: O=c1c2ccccc2oc2cccc(OCCCCCCOc3cccc4oc5ccccc5c(=O)c34)c12
target-of-assay: 3T3-L1
assay-metric: Activity
result: 0 to 25%

---

Test system: 3T3-L1
protocol-notes: Cytotoxicity against mouse 3T3L1 cells at 50 uM after 48 hrs by sulforhodamine B assay
Assay type: cell-based
measurement-parameters: 3t3-l1, 48 h

smiles-representation: COc1cc(C=O)c2c(=O)c3ccccc3oc2c1O
Activity: 51 to 75%
//
smiles-representation: COC(=O)COc1ccc2c(=O)c3ccc(OCC(=O)OC)cc3oc2c1
Activity: 0 to 25%
//
smiles-representation: CC1(C)C=Cc2c(cc3c(=O)c4ccccc4oc3c2O)O1
Activity: 0 to 25%
//
smiles-representation: C=CCOc1ccc(/C=C/C(=O)/C=C/c2ccc(OCC=C)c(OC)c2)cc1OC
Activity: 0 to 25%
//
smiles-representation: O=c1c2ccccc2oc2cc(O)ccc12
Activity: 0 to 25%
//
smiles-representation: COc1cc(C=O)c2c(=O)c3ccccc3oc2c1OC
Activity: 51 to 75%
//
smiles-representation: COc1ccc2c(=O)c3ccccc3oc2c1O
Activity: 0 to 25%
//
smiles-representation: CC(C)[C@@H](CO)NC(=O)COc1ccc2c(=O)c3ccccc3oc2c1
Activity: 0 to 25%
//
smiles-representation: COc1ccc2oc3ccccc3c(=O)c2c1OC
Activity: 0 to 25%
//
smiles-representation: COc1ccccc1C(=O)c1ccc(OC)c(OC)c1O
Activity: 51 to 75%
//
smiles-representation: COc1ccc2oc3ccccc3c(=O)c2c1
Activity: 0 to 25%
//
smiles-representation: COc1cc2c(c3oc4ccccc4c(=O)c13)OC(C)(C)CC2
Activity: 0 to 25%
//
smiles-representation: CCCOc1ccc(NCC(C)C)c2c(=O)c3ccccc3sc12
Activity: 0 to 25%
//
smiles-representation: O=C(O)Cc1ccc2c(=O)c3ccccc3oc2c1
Activity: 0 to 25%
//
smiles-representation: COc1cc(/C=C/C(=O)/C=C/c2ccc(O)c(OC)c2)ccc1O
Activity: 0 to 25%
//
smiles-representation: COc1c2c(cc3c(=O)c4ccccc4oc13)OC(C)(C)C=C2
Activity: 51 to 75%
//
smiles-representation: COc1c2c(cc3c(=O)c4ccc(O)cc4oc13)CCC(C)(C)O2
Activity: 0 to 25%
//
smiles-representation: CC1(C)C=Cc2cc3c(=O)c4ccccc4oc3c(O)c2O1
Activity: 0 to 25%
//
smiles-representation: COc1ccc2c(=O)c3ccccc3oc2c1OC
Activity: 0 to 25%
//
smiles-representation: O=c1c2ccccc2oc2cccc(OCCCCCCOc3cccc4oc5ccccc5c(=O)c34)c12
Activity: 51 to 75%
//
smiles-representation: O=c1c2ccccc2sc2c(O)ccc(Cl)c12
Activity: 51 to 75%
//
smiles-representation: O=c1c2ccccc2oc2cc(O)c(O)cc12
Activity: 0 to 25%
//
smiles-representation: COc1c2c(cc3c(=O)c4cc(C)ccc4oc13)CCC(C)(C)O2
Activity: 0 to 25%
